Target or test system: T1, human CD80-murine Ig fusion protein (human)
T1 construct: Bought (Ancell #510-820); also called hCD80-mIg; human CD80-murine IgG
T1 chain: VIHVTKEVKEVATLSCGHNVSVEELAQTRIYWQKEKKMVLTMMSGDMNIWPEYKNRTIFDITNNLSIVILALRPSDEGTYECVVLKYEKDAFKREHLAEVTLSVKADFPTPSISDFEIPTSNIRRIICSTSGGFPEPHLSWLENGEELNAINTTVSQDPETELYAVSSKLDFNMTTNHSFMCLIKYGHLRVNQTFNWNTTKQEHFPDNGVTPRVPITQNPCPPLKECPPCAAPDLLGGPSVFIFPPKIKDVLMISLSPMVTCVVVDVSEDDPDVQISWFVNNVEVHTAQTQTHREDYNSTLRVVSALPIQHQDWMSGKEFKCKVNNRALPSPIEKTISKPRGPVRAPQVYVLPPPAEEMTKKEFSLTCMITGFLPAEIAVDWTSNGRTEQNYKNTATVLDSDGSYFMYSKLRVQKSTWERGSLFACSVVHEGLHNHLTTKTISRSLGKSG
Test name: SPR Biacore, hCD80-mIg captured
pKd: −log10 of the molar value.
Reported endpoint: pKd

Quote pKd reported for D3-6-IgG2 (Fc fusion, also called D3-06-IgG2) MHVAQPAVVLASSRGIASFVCEYESPGKANEIRVTVLRQAGSQVTEVCAMTYMMGDELTFLDDPSCTGTFSGNQVNLTIQGLRAADTGLYICKVELMYPPPYYLGFGNGTQIYVIDPEPCPDSDERKCCVECPPCPAPPVAGPSVFLFPPKPKDTLMISRTPEVTCVVVDVSHEDPEVQFNWYVDGVEVHNAKTKPREEQFNSTFRVVSVLTVVHQDWLNGKEYKCKVSNKGLPAPIEKTISKTKGQPREPQVYTLPPSREEMTKNQVSLTCLVKGFYPSDIAVEWESNGQPENNYKTTPPMLDSDGSFFLYSKLTVDKSRWQQGNVFSCSVMHEALHNHYTQKSLSLSPG please. 8.76 to 9.36
